Test system: Plasmodium berghei
Experimental protocol: Screen against P. berghei liver stage (PbLuc), transformed with Luciferase, at 10uM
Assay type: functional, HepG2
Condition label: tested at 10 uM
The campaign covered roughly 69,000 compounds. About 8,600 (12%) showed an effect of 50% or more. The full list was thinned out, with strong results kept by preference.
Quantity measured: INHIBITION (%)

Molecule | Experimental value
c1ccc(N2CCCC3(CCN(Cc4nccs4)C3)C2)nc1 (centres undefined) | 29.1
c1csc(CN2CCC3(CCCN(c4nncs4)C3)C2)n1 (centres undefined) | -79.8
COCCN1CCC2(CCCN(c3ncc(F)cn3)C2)C1 (centres undefined) | 24.9
O=c1[nH][nH]c2cn(-c3ccc(Br)cc3)c(=O)n12 | 46.4
Fc1cnc(N2CCCC3(CCN(Cc4ccoc4)C3)C2)nc1 (centres undefined) | 40.4
CCOc1ncnc2c1CCN(Cc1cccs1)CC2 | 36.2
CC(C)C(=O)NCCNC(=O)CCOc1cccc(F)c1 | 48.45
CN(C)c1cc(C(F)(F)F)cc(-c2ccc(C(=O)O)cc2)n1 | 26.9
Fc1cnc(N2CCCC3(CCN(Cc4ccco4)C3)C2)nc1 (centres undefined) | -3.88
COc1ccc(CN2CCC3(CCCN(c4ncc(F)cn4)C3)C2)cc1 (centres undefined) | 74.2
NC(=O)c1ccc(N2CCCCC2)c(NC(=O)c2cc(Br)ccc2F)c1 | 86.8
c1cnc(N2CCCC3(CCN(Cc4cccs4)C3)C2)nc1 (centres undefined) | -20.8
CCCS(=O)(=O)N1CCC2(CCCN(c3ncc(F)cn3)C2)C1 (centres undefined) | 41
Cc1nnc(C(NS(=O)(=O)c2cc(C#N)ccc2C)C(C)C)[nH]1 (centres undefined) | 49.1
CC(NC(=O)Nc1cc(F)ccc1N1CCCCC1)c1nncn1C (centres undefined) | 25.7
CC(C)S(=O)(=O)C(C)C(=O)NCc1ccccc1OCc1ccccc1 (centres undefined) | 42.5
CS(=O)(=O)N1CCC2(CCCN(c3ncc(F)cn3)C2)C1 (centres undefined) | 28.2
O=c1[nH][nH]c2cn(-c3ccc(F)cc3)c(=O)n12 | 26.6
Cc1cnn(CCNCC(O)c2ccc(S(C)(=O)=O)cc2)c1 (centres undefined) | 12.6
CCn1cc(CN(C)C(=O)c2cc(C(F)(F)F)n(C)n2)cn1 | -6.42
Cc1cnc(N2CCC3(CCC(C(=O)NC(C)C)C3)CC2)nc1 (centres undefined) | 11.3
c1cc(CN2CCCCC2c2ccc(Nc3cnccn3)nc2)ccn1 (centres undefined) | 43.1
CN(C)CCN1CCOC2(CCN(c3nccs3)CC2)c2ccccc21 | 58.5
CNC(=O)NC(=O)CCN1CCN(c2ccc(C(=O)OC)cc2)CC1C (centres undefined) | 23.7
